- Tested on: Streptococcus pyogenes SSI-9
- test: Antibacterial activity assay of bead-derived peptides (three concentrations)
- Assay type: cell-based
- Set-up: key: +++: inhibition by the 640-fold diluted peptide solution; ++: inhibition by the 160-fold diluted solution; +: inhibition by the 40-fold diluted solution; -: no inhibition
- test-context: S. pyogenes, bead-derived peptide solution, three concentrations
- Method: Each type of assay must be simplified and miniaturized to assess the activities of the library peptides in a 96-well format for the high-throughput screening. Next, the peptides in groups A and B were subjected to the antibacterial assay and structural determination. Three peptide concentrations were applied to evaluate the growth inhibition of S. pyogenes and determine the antibacterial activity. […] Finally, the structures of the peptides were determined. […]
Where a SMILES comes first, the peptide text is derived from it. [ ]: non-standard residue; d: D form. The star is where a group is joined. NHCH2CH2OH = OCCN*; For = O=C*

[
  {
    "compound": "CC(C)C[C@@H](NC(=O)[C@H](C)NC(=O)[C@H](NC(=O)[C@H](C)NC(=O)CNC(=O)[C@@H](NC=O)C(C)C)C(C)C)C(=O)N[C@H](C(=O)N[C@H](CC(C)C)C(=O)N[C@@H](Cc1c[nH]c2ccccc12)C(=O)N[C@@H](C(=O)N[C@@H](Cc1c[nH]c2ccccc12)C(=O)N[C@@H](C(=O)N[C@@H](Cc1c[nH]c2ccccc12)C(=O)N[C@@H](C(=O)N[C@@H](Cc1c[nH]c2ccccc12)C(=O)NCCO)C(C)C)C(C)C)C(C)C)C(C)C [compound 4477] (For-VGA[dV]A[dL]V[dL]W[dV]W[dV]W[dV]W-NHCH2CH2OH)",
    "antibacterial activity": "+"
  },
  {
    "compound": "CNC(=O)C[C@@H](NC(=O)[C@@H](NC(=O)[C@@H](CC(C)C)NC(=O)[C@H](C)NC(=O)[C@H](NC(=O)[C@H](C)NC(=O)CNC(=O)[C@@H](NC=O)C(C)C)C(C)C)C(C)C)C(=O)N[C@@H](Cc1c[nH]c2ccccc12)C(=O)N[C@@H](C(=O)N[C@@H](Cc1c[nH]c2ccccc12)C(=O)N[C@@H](C(=O)N[C@@H](Cc1c[nH]c2ccccc12)C(=O)N[C@@H](C(=O)N[C@@H](Cc1c[nH]c2ccccc12)C(=O)NCCO)C(C)C)C(C)C)C(C)C [compound 11383] (For-VGA[dV]A[dL]V[dD](NHMe)W[dV]W[dV]W[dV]W-NHCH2CH2OH)",
    "antibacterial activity": "-"
  },
  {
    "compound": "CC(C)C[C@@H](NC(=O)[C@H](C)NC(=O)CNC(=O)[C@@H](NC=O)C(C)C)C(=O)N[C@@H](C)C(=O)N[C@H](CC(C)C)C(=O)N[C@H](C(=O)N[C@@H](C(=O)N[C@@H](Cc1c[nH]c2ccccc12)C(=O)N[C@@H](C(=O)N[C@@H](Cc1c[nH]c2ccccc12)C(=O)N[C@@H](C(=O)N[C@@H](Cc1c[nH]c2ccccc12)C(=O)N[C@@H](C(=O)N[C@@H](Cc1c[nH]c2ccccc12)C(=O)NCCO)[C@H](C)O)C(C)C)C(C)C)C(C)C)C(C)C [compound 2793] (For-VGA[dL]A[dL]V[dV]W[dV]W[dV]W[dT]W-NHCH2CH2OH)",
    "antibacterial activity": "-"
  },
  {
    "compound": "CC(C)C[C@@H](NC(=O)[C@H](C)NC(=O)[C@H](NC(=O)[C@H](C)NC(=O)CNC(=O)[C@@H](NC=O)C(C)C)C(C)C)C(=O)N[C@H](C(=O)N[C@H](CC(C)C)C(=O)N[C@@H](Cc1c[nH]c2ccccc12)C(=O)N[C@@H](C(=O)N[C@@H](Cc1c[nH]c2ccccc12)C(=O)N[C@@H](C(=O)N[C@@H](Cc1c[nH]c2ccccc12)C(=O)N[C@@H](C(=O)N[C@@H](Cc1c[nH]c2ccccc12)C(=O)NCCO)C(C)C)C(C)C)[C@H](C)O)C(C)C [compound 8554] (For-VGA[dV]A[dL]V[dL]W[dT]W[dV]W[dV]W-NHCH2CH2OH)",
    "antibacterial activity": "-"
  }
]

Origin of values: paper PMC7531004
